# Tested on: HCV genotype 3a NS5A within the 1b-replicon
# protocol details: Luciferase replicon assay, NS5A-intergenotypic stable cell line genotype 3a
# Format: cell-based
# settings: Hepatitis C virus, read-out: EC50 3a

{"columns": ["compound", "EC50"],
 "data": [
  ["COC(=O)N[C@H](C(=O)N1CCC[C@H]1c1ncc(-c2ccc(-c3csc4c(-c5cnc([C@@H]6CCCN6C(=O)[C@@H](NC(=O)OC)C(C)C)[nH]5)csc34)cc2)[nH]1)C(C)C [Compound A15]", "0.1 to 1 nM"],
  ["COC(=O)N[C@@H](C(=O)N1CCCC1c1nc2ccc(-c3csc4c(-c5ccc6[nH]c(C7CCCN7C(=O)[C@H](NC(=O)OC)C(C)C)nc6c5)csc34)cc2[nH]1)c1ccccc1 (stereo partly shown) [Compound A208]", "< 0.1 nM"],
  ["COC(=O)N[C@H](C(=O)N1CCCC1c1nc(-c2cc3sc(-c4cnc([C@@H]5CCCN5C(=O)[C@@H](NC(=O)OC)C(C)C)[nH]4)cc3s2)c[nH]1)C(C)C (stereo partly shown) [Compound A101]", "1 to 10 nM"],
  ["COC(=O)N[C@H](C(=O)N1CCC[C@H]1c1ncc(-c2csc3c(-c4ccc5[nH]c([C@@H]6CCCN6C(=O)[C@@H](NC(=O)OC)C(C)C)nc5c4)csc23)[nH]1)C(C)C [Compound A173]", "1 to 10 nM"]
]}

---

# protocol details: in vitro
# Format: cell-based
# settings: human; GS4.1 cells, cellular viability
measured quantity: CC50

{"columns": ["compound", "obs value"],
 "data": [
  ["COC(=O)N[C@H](C(=O)N1CCC[C@H]1c1ncc(-c2ccc(-c3csc4c(-c5cnc([C@@H]6CCCN6C(=O)[C@@H](NC(=O)OC)C(C)C)[nH]5)csc34)cc2)[nH]1)C(C)C [Compound A15]", "10 to 75 µM"],
  ["COC(=O)N[C@H](C(=O)N1CCC[C@H]1c1ncc(-c2ccc(-c3csc4c(Br)csc34)cc2)[nH]1)C(C)C [Compound A155]", "10 to 75 µM"],
  ["COC(=O)N[C@H](C(=O)N1CCCC1c1ncc(-c2cn3cc(-c4ccc(-c5cnc([C@@H]6CCCN6C(=O)[C@@H](NC(=O)OC)C(C)C)[nH]5)cc4)nc3s2)[nH]1)C(C)C (stereo partly drawn) [Compound A7]", "> 75 µM"],
  ["COC(=O)N[C@H](C(=O)N1CCCC1c1ncc(-c2ccc(-c3csc4c(-c5ccccc5)csc34)cc2)[nH]1)C(C)C (stereo partly drawn) [Compound A103]", "10 to 75 µM"],
  ["CC(C)(C)OC(=O)N[C@@H](C(=O)N1CCC[C@H]1C(=O)Nc1cn2cc(-c3ccccc3)sc2n1)c1ccccc1 [Compound A27]", "> 75 µM"],
  ["COC(=O)N[C@H](C(=O)N1CCCC1c1ncc(-c2ccc(-c3cc4sc(Br)cc4s3)cc2)[nH]1)C(C)C (stereo partly drawn) [Compound A168]", "10 to 75 µM"]
]}

---

# Test system: ZS11-luc L31V (HCV genotype 1b replicon)
# protocol details: Luciferase replicon transient transfection assay, ZS11-luc L31V
# Assay type: cell-based, hepatitis C virus
# Procedure: The luciferase replicon transient transfection assay measures the ability of a test compound to inhibit the replication of a transiently-transfected HCV luciferase-bearing wild-type or mutant replicon in cured human hepatoma cells (Huh7.5). The inhibition of HCV replication was measured by quantification of luciferase protein expression. […] EC50 values were calculated from dose response curves from the resulting best-fit equations determined by Microsoft Excel and XLfit 4.1 software.
Recorded Ratio values for a group of molecules are listed next.

{"columns": ["molecule", "Ratio"],
 "data": [
  ["COC(=O)N[C@H](C(=O)N1CCCC1c1ncc(-c2csc3c(-c4ccc(-c5cnc(C6CCCN6C(=O)C(c6ccccc6)N6CCCCC6)[nH]5)cc4)csc23)[nH]1)C(C)C (stereo partly drawn) [Compound A219]", 4],
  ["COC(=O)N[C@H](C(=O)N1CCC[C@H]1c1ncc(-c2ccc(-c3csc4c(-c5cnc([C@@H]6CCCN6C(=O)[C@H](NC(=O)OC(C)(C)C)c6ccccc6)[nH]5)csc34)cc2)[nH]1)C(C)C [Compound A111]", 51],
  ["COC(=O)N[C@H](C(=O)N1CCC[C@H]1c1ncc(-c2ccc(-c3cc4sc(-c5ccc(-c6c[nH]c(C7CCCN7C(=O)[C@H](NC(=O)OC)c7ccccc7)n6)cc5)cc4s3)cc2)[nH]1)C(C)C (stereo partly drawn) [Compound A192]", 20]
]}

Origin of values: patent US20120252721A1
